Just for reference, patent US9403808B2 is where these values come from.

Listing of entries alongside the reported EC50.
- target_or_test_system: human CB1 receptors (Homo sapiens (Human), UniProt P21554)
- Sequence (P21554 whole entry): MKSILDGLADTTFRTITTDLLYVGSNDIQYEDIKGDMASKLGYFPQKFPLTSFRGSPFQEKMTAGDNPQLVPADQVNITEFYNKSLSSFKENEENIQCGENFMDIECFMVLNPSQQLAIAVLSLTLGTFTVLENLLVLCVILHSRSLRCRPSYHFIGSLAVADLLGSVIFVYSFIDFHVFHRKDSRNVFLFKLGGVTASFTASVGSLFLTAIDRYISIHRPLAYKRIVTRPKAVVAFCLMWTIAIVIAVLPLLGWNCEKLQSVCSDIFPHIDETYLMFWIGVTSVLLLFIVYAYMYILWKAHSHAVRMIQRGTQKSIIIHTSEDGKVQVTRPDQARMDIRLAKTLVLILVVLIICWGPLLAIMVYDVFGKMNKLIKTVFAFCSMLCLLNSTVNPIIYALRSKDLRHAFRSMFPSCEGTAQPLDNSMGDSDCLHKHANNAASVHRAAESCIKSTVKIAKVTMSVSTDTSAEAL
- protocol_summary: functional cAMP assay, CB1
- Type: cell-based
- measurement_conditions: functional cAMP assay, CHO cells expressing human CB1; read-out: human CB1 EC50

compound: CNC(=O)C(CC1CCC1)NC(=O)c1cnc(C2CC2)c(OCC2CC2)n1 (stereo not drawn) [Example 98]
EC50: > 10 µM
//
compound: CCC(CC)(NC(=O)c1cnc(C2CC2)c(OCC2CC2)n1)C(=O)OC [Example 30]
EC50: 0.255 µM
//
compound: CC(C)(CCO)NC(=O)c1cnc(C2CC2)c(OCC2CC2)n1 [Example 10]
EC50: > 10 µM
//
compound: CNC(=O)[C@@H](NC(=O)c1cnc(N2CC(F)(F)C2)c(OCC2CC2)n1)C(C)(C)C [Example 8]
EC50: > 10 µM
//
compound: O=C(N[C@@H](c1ccccn1)C(F)(F)F)c1cnc(N2CC(F)(F)C2)c(OCC2CC2)n1 [Example 48]
EC50: > 10 µM
//
compound: NC(=O)[C@@H](NC(=O)c1cnc(N2CC(F)(F)C2)c(OCC2CC2)n1)c1ccccc1 [Example 22]
EC50: > 10 µM
//
compound: Cc1nc(C(C)(C)NC(=O)c2cnc(C3CC3)c(-c3cccc(Cl)c3)n2)no1 [Example 1]
EC50: 1.15 µM
//
compound: CCC(C)(CO)NC(=O)c1cnc(C2CC2)c(OCC2CC2)n1 (stereo not drawn) [Example 13]
EC50: > 10 µM
//
compound: CC(C)[C@](C)(CO)NC(=O)c1cnc(C2CC2)c(OCC2CC2)n1 [Example 51]
EC50: > 10 µM

----------
- target_or_test_system: human CB2 receptors (Homo sapiens (Human), UniProt P34972)
- Sequence (P34972 whole entry): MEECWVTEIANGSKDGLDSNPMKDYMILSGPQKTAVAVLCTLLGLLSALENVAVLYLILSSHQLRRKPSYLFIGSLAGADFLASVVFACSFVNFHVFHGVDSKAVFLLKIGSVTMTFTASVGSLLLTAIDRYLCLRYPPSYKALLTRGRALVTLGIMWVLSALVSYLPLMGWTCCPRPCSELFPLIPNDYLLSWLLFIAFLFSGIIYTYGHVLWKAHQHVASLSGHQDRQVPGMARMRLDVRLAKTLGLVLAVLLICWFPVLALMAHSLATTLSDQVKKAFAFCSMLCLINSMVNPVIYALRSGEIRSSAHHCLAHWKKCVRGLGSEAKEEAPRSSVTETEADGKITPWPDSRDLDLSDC
- protocol_summary: functional cAMP assay, CB2
- Format: cell-based
- measurement_conditions: functional cAMP assay, CHO cells expressing human CB2; read-out: human CB2 EC50
The label is class 1 for EC50 below 40 nM and class 0 for EC50 equal to or exceeding 40 nM.

molecule: NC(=O)CC1(NC(=O)c2cnc(N3CC(F)(F)C3)c(OCC3CC3)n2)COC1
class_assignment: class 1
//
molecule: NC(=O)[C@H](Cc1ccccc1)NC(=O)c1cnc(N2CC(F)(F)C2)c(OCC2CC2)n1
class_assignment: class 0
//
molecule: NC(=O)C(CC1CCC1)NC(=O)c1cnc(C2CC2)c(OCC2CC2)n1 (centres unmarked)
class_assignment: class 0
//
molecule: CNC(=O)[C@@H](NC(=O)c1cnc(N2CC(F)(F)C2)c(OCC2CC2)n1)C(C)(C)C
class_assignment: class 1
//
molecule: CN(C)C(=O)[C@H](CC1CC1)NC(=O)c1cnc(N2CC(F)(F)C2)c(OCC2CC2)n1
class_assignment: class 0
//
molecule: O=C(NN1CCCCC1)c1cnc(C2CC2)c(-c2cccc(Cl)c2)n1
class_assignment: class 0
//
molecule: CN(C)C(=O)C(CC1CCC1)NC(=O)c1cnc(N2CC(F)(F)C2)c(OCC2CC2)n1 (centres unmarked)
class_assignment: class 1
//
molecule: Cc1nc(C(C)(C)NC(=O)c2cnc(C3CC3)c(-c3cccc(Cl)c3)n2)no1
class_assignment: class 0

----------
- target_or_test_system: UniProtKB P34972
- protocol_summary: functional cAMP assay, CB2
- Type: cell-based
- measurement_conditions: functional cAMP assay, CHO cells expressing human CB2; read-out: human CB2 EC50
EC50 values, listed per item
parameter: EC50

molecule: CNC(=O)[C@H](CC1CC1)NC(=O)c1cnc(C2CC2)c(OCC2CC2)n1
assay_value: 0.199 µM
--
molecule: O=C(N[C@@H](c1ccccn1)C(F)(F)F)c1cnc(N2CC(F)(F)C2)c(OCC2CC2)n1
assay_value: 0.0244 µM
--
molecule: CN(C)C(=O)C(CC1CCC1)NC(=O)c1cnc(C2CC2)c(OCC2CC2)n1 (stereo not shown)
assay_value: 0.0192 µM
--
molecule: O=C(N[C@H](c1ccccn1)C(F)(F)F)c1cnc(N2CC(F)(F)C2)c(OCC2CC2)n1
assay_value: 0.0729 µM
--
molecule: NC(=O)[C@H]1CCCC[C@H]1NC(=O)c1cnc(C2CC2)c(OCC2CC2)n1
assay_value: 0.0444 µM
--
molecule: CC(C)(C#N)NC(=O)c1cnc(C2CC2)c(-c2cccc(Cl)c2)n1
assay_value: 0.104 µM
--
molecule: Cc1oc(-c2ccccc2)nc1CC(C)(C)NC(=O)c1cnc(C2CC2)c(OCC2CC2)n1
assay_value: 0.201 µM
